Reported IC50 by item:
TARGET_ENTITY: human A2A adenosine receptor (Homo sapiens (Human), UniProt P29274)
Sequence (P29274 whole entry): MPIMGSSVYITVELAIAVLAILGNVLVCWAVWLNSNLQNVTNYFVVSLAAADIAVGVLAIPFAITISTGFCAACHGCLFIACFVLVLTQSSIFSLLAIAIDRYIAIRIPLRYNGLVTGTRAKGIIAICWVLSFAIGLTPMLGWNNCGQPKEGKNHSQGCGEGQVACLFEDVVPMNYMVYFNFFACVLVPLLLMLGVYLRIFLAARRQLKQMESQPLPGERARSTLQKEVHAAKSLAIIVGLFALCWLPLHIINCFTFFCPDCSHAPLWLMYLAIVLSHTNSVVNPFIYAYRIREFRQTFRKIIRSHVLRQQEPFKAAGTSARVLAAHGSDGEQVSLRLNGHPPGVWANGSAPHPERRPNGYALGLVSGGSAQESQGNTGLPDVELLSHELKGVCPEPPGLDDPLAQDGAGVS
ASSAY_PROTOCOL: A2A binding affinity using radioligand binding, Method (A)
PROTOCOL_CONDITIONS: Method (A): filtration radioligand binding, [3H] SCH58261, membranes expressing human A2A

COMPOUND | TARGET_ENTITY | IC50
COc1cccc2c1nc(N)n1nc(CCS(C)(=O)=O)nc21 [Example 6.3] | human A2A adenosine receptor (Homo sapiens (Human), UniProt P29274) | 8.2 nM
COc1cc(F)cc2c1nc(N)n1nc(CC3CC3c3ccc(C(C)(C)N)cc3)nc21 (single isomer, unassigned) [Example 8.4A] | human A2A adenosine receptor (Homo sapiens (Human), UniProt P29274) | 10.2 nM
CCS(=O)(=O)CCc1nc2c3cc(F)cc(OC)c3nc(N)n2n1 | human A2A adenosine receptor (Homo sapiens (Human), UniProt P29274) | 9.8 nM
COc1cc(F)cc2c1nc(N)n1nc(CCC3CCn4c(cnc4C4(C(F)(F)F)CC4)C3)nc21 (single isomer, unassigned) [Example 12.3B] | human A2A adenosine receptor (Homo sapiens (Human), UniProt P29274) | 6.7 nM
